# System: MCF‐10A cells
# Protocol summary: Cell viability in nontransformed cell line MCF-10A
# Type: cell-based
# Setup conditions: Homo sapiens
Exercise: state measured IC50 for each of the compounds provided.

Consider the worked cases shown below.
compound=COc1ccc(-c2nc(NCc3ccc(C(=O)NO)cc3)nc(N3CCOCC3)n2)cn1 attribute_measured=IC50 result="< 1000 nM"
compound=O=C(NO)c1ccc(CNc2nc(-c3cccc(O)c3)nc(N3CCOCC3)n2)cc1 attribute_measured=IC50 result="< 1000 nM"

Okay, now this compound:
Give IC50 for COc1ccc(-c2nc(N3CCOCC3)c3sc(CN(C)c4ncc(C(=O)NO)cn4)cc3n2)cn1 [Fimepinostat, fimepinostat, reference compound]
< 300 nM
